All figures here come from PubChem BioAssay.

Listed here are compounds together with their documented inhibition.
Assay Method Text: inhibitors of TNFa-induced NFkB p65 translocation, primary screen, imaging, HUVEC, MLSMR starter and 10KST1 sets (AID 438);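 note: compound added about 3h40 before a 20 min TNFalpha stimulation; signal is the nuclear over cytoplasmic p65 intensity ratio per well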
Test Settings: HUVEC TNFa-induced p65 nuclear translocation; at 2 µM, active compounds read high, 0% TNFa-plus-vehicle, 100% no-TNFa wells
Activity calls are given as the source filed them.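 Rule for the calls: active = inhibition above 20% together with a positive visual image hit; inconclusive = visual image hit but inhibition not above 20%; inactive = no visual image hit.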
Measure: inhibition

INSERT INTO results (compound, measure, reported_result) VALUES
  ('CCN(C1CCCCC1)S(=O)(=O)c1ccc(OC)c(C)c1', 'inhibition', '-3.6% (inactive)'),
  ('CC1(C)CC(=O)C=C(Nc2ccc(OCC(F)(F)C(F)F)cc2)C1', 'inhibition', '-0.3% (inactive)'),
  ('CSc1cccc(NS(=O)(=O)c2ccccc2)c1', 'inhibition', '-1.4% (inactive)'),
  ('CC(Sc1nc(-c2ccccc2)cc(C(F)(F)F)n1)C(=O)N1CCC(C(N)=O)CC1 (configuration not stated)', 'inhibition', '7.2% (inactive)'),
  ('C/C=C/COC(=O)c1[nH]c2c(c1C)C(=O)CC(c1ccc(N(C)C)cc1)C2 (configuration not stated)', 'inhibition', '1.8% (inactive)'),
  ('C/C=C/c1ccc(OCCn2cncn2)c(OC)c1', 'inhibition', '-6.6% (inactive)'),
  ('C#CCN1C(=O)C(O)(CC(=O)c2cc(OC)ccc2OC)c2ccccc21 (configuration not stated)', 'inhibition', '-2.9% (inactive)'),
  ('O=C(COC(=O)c1cnccn1)c1ccc(OC(=O)c2ccccc2)cc1', 'inhibition', '-7.5% (inactive)'),
  ('O=C1CCCc2c1cc(C(=O)NCCCN1CCOCC1)c(=O)n2-c1ccc(Cl)cc1', 'inhibition', '2.5% (inactive)'),
  ('CC(C)(C)SCCNC(=O)CSc1ccccc1', 'inhibition', '-11% (inactive)'),
  ('Cc1cccc(-c2c3c(=O)n(C)c(=O)n(C)c3cn2-c2ccc(O)cc2)c1', 'inhibition', '-2.8% (inactive)'),
  ('Cc1[nH]nc2c1C1(C(=O)N(Cc3ccc(Cl)cc3)c3ccccc31)C(C#N)=C(N)O2 (configuration not stated)', 'inhibition', '1.4% (inactive)'),
  ('COc1ccc(NC(=O)CN(c2cc(C)cc(C)c2)S(=O)(=O)c2c(C)noc2C)cc1OC', 'inhibition', '-1.7% (inactive)'),
  ('Cc1ccc(-c2cc(C(=O)NCCN3CCOCC3)no2)cc1', 'inhibition', '1.9% (inactive)'),
  ('O=C(Nc1ccc2snnc2c1)N1CCSCC1', 'inhibition', '-3% (inactive)'),
  ('COc1ccc(OC)c(NC(=O)c2nnn(Cc3ccc(Br)cc3F)c2N)c1', 'inhibition', '0.6% (inactive)'),
  ('CC(C)CCN1CC(C(=O)NCc2ccccc2)CC1=O (configuration not stated)', 'inhibition', '2.2% (inactive)'),
  ('O=c1cc(CSc2ccccn2)c2ccccc2[nH]1', 'inhibition', '1.4% (inactive)'),
  ('COc1ccc(S(=O)(=O)N2CCN(CC(=O)Nc3ccc(F)c(F)c3)CC2)cc1', 'inhibition', '-7.6% (inactive)'),
  ('Cc1nnc(SCC(=O)Nc2c(Cl)cccc2Cl)[nH]c1=O', 'inhibition', '1.1% (inactive)'),
  ('Cc1ccccc1-c1nc(CS(=O)(=O)CC(=O)NCc2ccc3c(c2)OCO3)c(C)o1', 'inhibition', '-0.6% (inactive)'),
  ('Cc1ccc(Nc2nc(CSc3nnc(-c4cccs4)o3)cs2)cc1', 'inhibition', '-0.2% (inactive)'),
  ('COc1cccc(C(=O)CN2CCC(NC(=O)NC3CCCCC3)CC2)c1', 'inhibition', '-25.5% (inactive)'),
  ('O=C(c1cnn2c(C(F)(F)F)cc(-c3ccco3)nc12)N1CCc2ccccc2C1', 'inhibition', '2% (inactive)'),
  ('COc1ccc(N2CCN(C(=O)Cc3ccc(-n4c(=O)[nH]c5ccccc5c4=O)cc3)CC2)cc1', 'inhibition', '-5.8% (inactive)'),
  ('CC1=C(C(=O)OCc2ccccc2)C(c2ccco2)n2ncnc2N1 (configuration not stated)', 'inhibition', '-2.8% (inactive)'),
  ('C=C(C)c1cccc(C(C)(C)NC(=O)NCC2CCCO2)c1 (configuration not stated)', 'inhibition', '2.3% (inactive)');
